# System: 485176-168-R4-J1-PDC complex spheroid growth
# Protocol Description: Anticancer human tumor 485176-168-R4-J1-PDC patient-derived pancreatic adenocarcinoma cell line growth inhibition [RAS]
# Protocol Conditions: curve of first compound; second compound 3.16 µM
pIC50 overview
Field pIC50 (float): negative decimal logarithm of the concentration in molar.

Molecule | Target | Property Measured | Measured Value
CCc1c2c(nc3ccc(O)cc13)-c1cc3c(c(=O)n1C2)COC(=O)[C@]3(O)CC + C#Cc1c(F)ccc2cc(O)cc(-c3ncc4c(N5CC6CCC(C5)N6)nc(OCC56CCCN5CC(F)C6)nc4c3F)c12 | 485176-168-R4-J1-PDC complex spheroid growth | pIC50 | 7.66

// switching to the query molecule
Value of pIC50 reported for the molecule Nc1ccn(C2OC(CO)C(O)C2(F)F)c(=O)n1 (stereo not given) + C#Cc1c(F)ccc2cc(O)cc(-c3ncc4c(N5CC6CCC(C5)N6)nc(OCC56CCCN5CC(F)C6)nc4c3F)c12 is 7.82

----------
# Test system: 485176-168-R4-J1-PDC complex spheroid growth
# Protocol Description: Anticancer human tumor 485176-168-R4-J1-PDC cell line growth inhibition [RAS];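 also: spheroids exposed to compounds for seven days before readout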;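 as to viability, T/C: luminescence viability expressed relative to DMSO vehicle wells set as 100%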
# Protocol Conditions: second compound 1 µM; first compound 0.003 µM; stronger effect = lower value
Property Measured: viability, T/C (%)
Your answer should be a plain number; it is taken to be in %.

Value of viability, T/C reported for the compound CC1(C)CCC(Nc2ncc(C(F)(F)F)c(-c3c[nH]c4c(P(C)(C)=O)c(C#N)ccc34)n2)CN1 (centres undefined) + C=CC(=O)N1CCN(c2nc(OCC3CCCN3C)nc3c(F)c(-c4nc(N)cc(C)c4C(F)(F)F)c(Cl)cc23)C(C)C1 is 106

Value of viability, T/C reported for the compound CCc1c2c(nc3ccc(O)cc13)-c1cc3c(c(=O)n1C2)COC(=O)[C@]3(O)CC + C#Cc1c(F)ccc2cc(O)cc(-c3ncc4c(N5CC6CCC(C5)N6)nc(OCC56CCCN5CC(F)C6)nc4c3F)c12 is 94.4

Value of viability, T/C reported for the compound CC1(C)CCC(Nc2ncc(C(F)(F)F)c(-c3c[nH]c4c(P(C)(C)=O)c(C#N)ccc34)n2)CN1 (centres undefined) + C#Cc1c(F)ccc2cc(O)cc(-c3ncc4c(N5CC6CCC(C5)N6)nc(OCC56CCCN5CC(F)C6)nc4c3F)c12 is 96

Value of viability, T/C reported for the compound CCc1c2c(nc3ccc(O)cc13)-c1cc3c(c(=O)n1C2)COC(=O)[C@]3(O)CC + C=CC(=O)N1CCN(c2nc(OCC3CCCN3C)nc3c(F)c(-c4nc(N)cc(C)c4C(F)(F)F)c(Cl)cc23)C(C)C1 is 75

----------
# System: 485176-168-R4-J1-PDC complex spheroid growth
# Protocol Description: Anticancer human tumor 485176-168-R4-J1-PDC cell line growth inhibition [RAS];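 also: spheroids exposed to compounds for seven days before readout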
# Protocol Conditions: curve of first compound; second compound 0.3 µM
Property Measured: pIC50
Field pIC50 (float): negative decimal logarithm of the concentration in molar.

Below are worked cases with known answers.
Compound | pIC50
CC(C)NCC(C(=O)N1CCN(c2ncnc3c2C(C)CC3O)CC1)c1ccc(Cl)cc1 (centres undefined) + CCn1c(-c2cc(N3CCN(C)CC3)cnc2C(C)OC)c2c3cc(ccc31)-c1csc(n1)CC(NC(=O)C1CC1C)C(=O)N1CCCC(N1)C(=O)OCC(C)(C)C2 | 6.10
Nc1ccn(C2OC(CO)C(O)C2(F)F)c(=O)n1 (centres undefined) + CCn1c(-c2cc(N3CCN(C)CC3)cnc2C(C)OC)c2c3cc(ccc31)-c1csc(n1)CC(NC(=O)C1CC1C)C(=O)N1CCCC(N1)C(=O)OCC(C)(C)C2 | 7.72
C[C@@H](NC(=O)c1ncnc(N)c1Cl)c1ncc(C(=O)Nc2cc(C(F)(F)F)c(Cl)cn2)s1 + CCn1c(-c2cc(N3CCN(C)CC3)cnc2C(C)OC)c2c3cc(ccc31)-c1csc(n1)CC(NC(=O)C1CC1C)C(=O)N1CCCC(N1)C(=O)OCC(C)(C)C2 | 5.36

Value of pIC50 reported for the compound O=C(c1ccc(F)c(F)c1Nc1ccc(I)cc1F)N1CC(O)([C@@H]2CCCCN2)C1 + CCn1c(-c2cccnc2C(C)OC)c2c3cc(ccc31)N1CCOC(CC(NC(=O)C(C(C)C)N(C)C(=O)C3(F)CCN(C(=O)C#CC(C)(C)N(C)C)CC3)C(=O)N3CCCC(N3)C(=O)OCC(C)(C)C2)C1 is 7.49

Value of pIC50 reported for the compound Nc1ccn(C2OC(CO)C(O)C2(F)F)c(=O)n1 (centres undefined) + CCn1c(-c2cccnc2C(C)OC)c2c3cc(ccc31)N1CCOC(CC(NC(=O)C(C(C)C)N(C)C(=O)C3(F)CCN(C(=O)C#CC(C)(C)N(C)C)CC3)C(=O)N3CCCC(N3)C(=O)OCC(C)(C)C2)C1 is 7.92

Value of pIC50 reported for the compound C[C@@H](NC(=O)c1ncnc(N)c1Cl)c1ncc(C(=O)Nc2cc(C(F)(F)F)c(Cl)cn2)s1 + CCn1c(-c2cccnc2C(C)OC)c2c3cc(ccc31)N1CCOC(CC(NC(=O)C(C(C)C)N(C)C(=O)C3(F)CCN(C(=O)C#CC(C)(C)N(C)C)CC3)C(=O)N3CCCC(N3)C(=O)OCC(C)(C)C2)C1 is 5.02

----------
# Test system: 485176-168-R4-J1-PDC complex spheroid growth
# Protocol Description: Anticancer human tumor 485176-168-R4-J1-PDC cell line growth inhibition [RAS];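 also: spheroids exposed to compounds for seven days before readout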;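 as to viability, T/C: luminescence viability expressed relative to DMSO vehicle wells set as 100%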
# Protocol Conditions: compound 0.1 µM; stronger effect = lower value
viability, T/C overview

Molecule | Target | Measured Value
CC(C)n1nc(-c2ccc3oc(N)nc3c2)c2c(N)ncnc21 | 485176-168-R4-J1-PDC complex spheroid growth | 22.3% [middle of 4 runs]
Nc1ccn(C2OC(CO)C(O)C2(F)F)c(=O)n1 (centres undefined) | 485176-168-R4-J1-PDC complex spheroid growth | 9.63% [middle of 4 runs]
O=C(c1ccc(F)c(F)c1Nc1ccc(I)cc1F)N1CC(O)([C@@H]2CCCCN2)C1 | 485176-168-R4-J1-PDC complex spheroid growth | 53.7% [middle of 4 runs]
Cc1nc(N2CCC3(CC2)COC(C)C3N)c(CO)nc1Sc1ccnc(N)c1Cl (centres undefined) | 485176-168-R4-J1-PDC complex spheroid growth | 86.5% [middle of 4 runs]
NC1c2ccccc2OC12CCN(c1cnc3c(N4CCCc5ncccc54)n[nH]c3n1)CC2 (centres undefined) | 485176-168-R4-J1-PDC complex spheroid growth | 79.2% [middle of 4 runs]

Value of viability, T/C reported for the molecule C=CC(=O)N1CCN(c2nc(OCC3CCCN3C)nc3c(F)c(-c4nc(N)cc(C)c4C(F)(F)F)c(Cl)cc23)C(C)C1 (centres undefined) is 98.5% [middle of 12 runs]

Value of viability, T/C reported for the molecule CC(C)NCC(C(=O)N1CCN(c2ncnc3c2C(C)CC3O)CC1)c1ccc(Cl)cc1 (centres undefined) is 93.9% [middle of 4 runs]

Value of viability, T/C reported for the molecule CC1(O)CCCC1n1c(=O)c(C(F)F)cc2cnc(NC3CCN(S(C)(=O)=O)CC3)nc21 (centres undefined) is 77.6% [middle of 4 runs]

Value of viability, T/C reported for the molecule C#Cc1c(F)ccc2cc(O)cc(-c3ncc4c(N5CC6CCC(C5)N6)nc(OCC56CCCN5CC(F)C6)nc4c3F)c12 (centres undefined) is 102% [middle of 8 runs]

----------
pIC50 overview
# Test system: 485176-168-R4-J1-PDC complex spheroid growth
# Protocol Description: Anticancer human tumor 485176-168-R4-J1-PDC cell line growth inhibition [RAS];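 also: spheroids exposed to compounds for seven days before readout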
# Protocol Conditions: curve of first compound; second compound 0.00949 µM
# Description: RAS pathway inhibitors in Combinations in Complex Spheroids A high-throughput screen of multi-cell type tumor spheroids was designed to identify active combinations of RAS pathway inhibitors and targeted small molecules. Complex spheroids include a stromal component modeled by human endothelial cells (HUVEC) and fibroblasts modeled by human mesenchymal stem cells (MSCs). […] Compounds. […] If the clinical Cmax for an agent had not been determined, the highest concentration tested was 10 microM. […]
Field pIC50 (float): negative decimal logarithm of the concentration in molar.

Below are worked cases with known answers.
Compound | pIC50
CC(C)n1nc(-c2ccc3oc(N)nc3c2)c2c(N)ncnc21 + CCn1c(-c2cc(N3CCN(C)CC3)cnc2C(C)OC)c2c3cc(ccc31)-c1csc(n1)CC(NC(=O)C1CC1C)C(=O)N1CCCC(N1)C(=O)OCC(C)(C)C2 | 7.73
CC1(C)CCC(Nc2ncc(C(F)(F)F)c(-c3c[nH]c4c(P(C)(C)=O)c(C#N)ccc34)n2)CN1 (stereo not drawn) + CCn1c(-c2cccnc2C(C)OC)c2c3cc(ccc31)N1CCOC(CC(NC(=O)C(C(C)C)N(C)C(=O)C3(F)CCN(C(=O)C#CC(C)(C)N(C)C)CC3)C(=O)N3CCCC(N3)C(=O)OCC(C)(C)C2)C1 | 7.18
CC(Nc1ccc2c(c1)OCCn1cc(N3C(=O)OCC3C(F)F)nc1-2)C(N)=O (stereo not drawn) + CCn1c(-c2cc(N3CCN(C)CC3)cnc2C(C)OC)c2c3cc(ccc31)-c1csc(n1)CC(NC(=O)C1CC1C)C(=O)N1CCCC(N1)C(=O)OCC(C)(C)C2 | 5.10
CC(C)NCC(C(=O)N1CCN(c2ncnc3c2C(C)CC3O)CC1)c1ccc(Cl)cc1 (stereo not drawn) + CCn1c(-c2cc(N3CCN(C)CC3)cnc2C(C)OC)c2c3cc(ccc31)-c1csc(n1)CC(NC(=O)C1CC1C)C(=O)N1CCCC(N1)C(=O)OCC(C)(C)C2 | 5.78
CC1(O)CCCC1n1c(=O)c(C(F)F)cc2cnc(NC3CCN(S(C)(=O)=O)CC3)nc21 (stereo not drawn) + CCn1c(-c2cc(N3CCN(C)CC3)cnc2C(C)OC)c2c3cc(ccc31)-c1csc(n1)CC(NC(=O)C1CC1C)C(=O)N1CCCC(N1)C(=O)OCC(C)(C)C2 | 5.76

// switching to the query compound
Value of pIC50 reported for the compound CCC(CC)c1cc(NC2CCC(N)C2)n2nccc2n1 (stereo not drawn) + CCn1c(-c2cccnc2C(C)OC)c2c3cc(ccc31)N1CCOC(CC(NC(=O)C(C(C)C)N(C)C(=O)C3(F)CCN(C(=O)C#CC(C)(C)N(C)C)CC3)C(=O)N3CCCC(N3)C(=O)OCC(C)(C)C2)C1 is 5.90
